Provide the reported pIC50 of each item.
MEASURED ON: wild-type EZH2 (Homo sapiens)
Sequence (Q15910 whole entry): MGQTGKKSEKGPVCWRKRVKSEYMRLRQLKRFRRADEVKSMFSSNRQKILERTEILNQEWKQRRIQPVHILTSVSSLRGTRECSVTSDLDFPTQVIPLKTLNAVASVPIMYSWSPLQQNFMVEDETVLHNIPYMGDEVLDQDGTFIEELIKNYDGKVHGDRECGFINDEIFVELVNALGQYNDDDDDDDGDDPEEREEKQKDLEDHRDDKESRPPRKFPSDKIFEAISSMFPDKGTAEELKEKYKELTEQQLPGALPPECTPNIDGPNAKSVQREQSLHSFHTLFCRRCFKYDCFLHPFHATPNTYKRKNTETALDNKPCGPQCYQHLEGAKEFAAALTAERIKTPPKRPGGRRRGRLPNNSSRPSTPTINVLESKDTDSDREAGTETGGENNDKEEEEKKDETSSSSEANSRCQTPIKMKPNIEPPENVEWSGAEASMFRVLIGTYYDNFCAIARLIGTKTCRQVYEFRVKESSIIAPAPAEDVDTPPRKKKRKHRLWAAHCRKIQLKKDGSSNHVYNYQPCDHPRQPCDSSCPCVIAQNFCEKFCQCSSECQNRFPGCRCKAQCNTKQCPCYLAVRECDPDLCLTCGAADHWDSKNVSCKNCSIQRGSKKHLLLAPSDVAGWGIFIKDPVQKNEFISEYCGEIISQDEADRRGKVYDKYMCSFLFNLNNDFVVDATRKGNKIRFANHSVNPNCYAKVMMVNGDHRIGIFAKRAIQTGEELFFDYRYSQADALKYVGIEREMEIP
Sequence (O75530 whole entry partner): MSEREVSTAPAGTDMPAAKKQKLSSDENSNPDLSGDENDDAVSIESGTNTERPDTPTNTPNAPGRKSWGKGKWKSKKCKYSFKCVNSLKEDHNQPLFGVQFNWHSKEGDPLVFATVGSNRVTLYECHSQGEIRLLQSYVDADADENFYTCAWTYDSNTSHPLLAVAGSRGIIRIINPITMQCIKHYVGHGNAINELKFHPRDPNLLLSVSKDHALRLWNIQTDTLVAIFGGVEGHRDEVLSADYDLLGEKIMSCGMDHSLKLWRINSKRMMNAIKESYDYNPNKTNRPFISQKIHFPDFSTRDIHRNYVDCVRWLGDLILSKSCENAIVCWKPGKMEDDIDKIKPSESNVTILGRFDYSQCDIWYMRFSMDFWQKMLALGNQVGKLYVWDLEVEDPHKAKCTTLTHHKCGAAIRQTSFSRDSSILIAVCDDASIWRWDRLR
Sequence (Q15022 whole entry partner): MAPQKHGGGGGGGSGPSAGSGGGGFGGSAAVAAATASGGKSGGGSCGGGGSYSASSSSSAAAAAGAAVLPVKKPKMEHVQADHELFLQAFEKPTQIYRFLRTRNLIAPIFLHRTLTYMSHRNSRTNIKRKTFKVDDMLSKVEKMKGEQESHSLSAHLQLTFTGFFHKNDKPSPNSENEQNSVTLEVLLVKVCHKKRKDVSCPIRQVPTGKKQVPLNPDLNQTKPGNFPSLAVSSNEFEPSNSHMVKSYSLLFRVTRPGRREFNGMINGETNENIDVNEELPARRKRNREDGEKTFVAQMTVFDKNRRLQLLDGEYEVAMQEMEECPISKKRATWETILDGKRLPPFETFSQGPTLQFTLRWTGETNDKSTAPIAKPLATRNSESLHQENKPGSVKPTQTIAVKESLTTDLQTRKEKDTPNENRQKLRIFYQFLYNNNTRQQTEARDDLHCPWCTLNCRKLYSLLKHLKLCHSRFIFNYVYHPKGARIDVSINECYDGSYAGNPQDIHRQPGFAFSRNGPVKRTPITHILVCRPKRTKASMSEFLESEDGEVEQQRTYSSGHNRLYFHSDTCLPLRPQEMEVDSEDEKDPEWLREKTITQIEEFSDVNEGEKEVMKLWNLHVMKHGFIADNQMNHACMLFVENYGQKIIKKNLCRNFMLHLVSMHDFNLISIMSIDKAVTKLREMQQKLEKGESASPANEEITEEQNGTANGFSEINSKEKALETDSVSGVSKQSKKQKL
Sequence (Q09028 whole entry partner): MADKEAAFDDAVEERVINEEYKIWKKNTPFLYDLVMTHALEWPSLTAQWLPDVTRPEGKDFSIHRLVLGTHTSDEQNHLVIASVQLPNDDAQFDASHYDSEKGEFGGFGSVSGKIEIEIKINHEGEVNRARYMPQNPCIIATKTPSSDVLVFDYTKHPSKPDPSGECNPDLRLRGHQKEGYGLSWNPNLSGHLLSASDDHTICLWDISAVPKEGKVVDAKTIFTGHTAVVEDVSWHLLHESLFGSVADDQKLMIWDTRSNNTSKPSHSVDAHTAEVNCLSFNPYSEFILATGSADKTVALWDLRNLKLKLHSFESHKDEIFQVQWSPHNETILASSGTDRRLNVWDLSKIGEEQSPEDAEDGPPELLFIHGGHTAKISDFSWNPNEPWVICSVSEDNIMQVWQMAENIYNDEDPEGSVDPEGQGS
One number for each entry, as −log10 of the molar value.

Use these answered entries as a reference point.
> print(dat)
                                   compound                    measured.on  recorded.number
1  CCN(c1cc(-c2cc3c(cc2F)C(N2CCOCC2)CC3)cc(C(=O)NCc2c(C)cc(C)[nH]c2=O)c1C)C1CCOCC1 (stereo not drawn)  wild-type EZH2 (Homo sapiens)             9.06
2  CCN(c1cc(-c2ccc3c(c2)CCC3N2CCOCC2)c(F)c(C(=O)NCc2c(C)cc(C)[nH]c2=O)c1C)C1CCOCC1 (stereo not drawn)  wild-type EZH2 (Homo sapiens)             9.22
3  C=CC(=O)Nc1ccc2c(c1)CN(c1cc(C(=O)NCc3c(C)cc(C)[nH]c3=O)c(C)c(N(CC)C3CCOCC3)c1)C2  wild-type EZH2 (Homo sapiens)             9.21
4  CCN(c1cc(-c2ccc3c(c2)CCC3N2CCOCC2)cc(C(=O)NCc2c(C)cc(C)[nH]c2=O)c1C)C1CC(C)OC(C)C1 (stereo not drawn)  wild-type EZH2 (Homo sapiens)             9.02
5  CCN(c1cc(-c2ccc(C3(C#N)CCOCC3)cc2)c(Cl)c(C(=O)NCc2c(C)cc(C)[nH]c2=O)c1C)C1CCOCC1  wild-type EZH2 (Homo sapiens)             9.05

So what does the record say about pIC50 for CCN(c1cc(N2Cc3cn(C)cc3C2)cc(C(=O)NCc2c(C)cc(C)[nH]c2=O)c1C)C1CCOCC1 ?
9.05
